These data points were gathered from the supplement of paper PMC4466140.

- assayed-target: AgFus1
- assay-name: SPOT peptide array binding signal intensity (averaged, normalized) (arbitrary units (background-subtracted, floor 0; scale differs between SH3 domains)); higher = stronger binding of the SH3 domain to the peptide
Range-based classes on measured SPOT peptide array binding signal intensity: one = under 30, two = from 30 up to 400, three = 400 and over

## Task Each binder maps to one class by SPOT peptide array binding signal intensity. Which class for KRRTSLFPWLHKPGI ?
## Result two

## Task Input RRSKSLPTTPGIRSG ; output its category
## Result two

## Task Just checking, what class would you give RMVRRRPLRVQFSAR here?
## Result three

## Task Which SPOT peptide array binding signal intensity category applies to HPRFVSPRIPSRIVK here?
## Result two

## Task Dear colleague, I would appreciate it if you could identify the bin for GAGERPRLVPRPINV and reply at your convenience.
## Result one

## Task # bin lookup: classify SSTPTTPERPKRKSG by its SPOT peptide array binding signal intensity
## Result one

## Task Record RRARRQMGIPTISQV — which class?
## Result three

## Task Kindly state the category for this binder: NRPAIRIPSLKKPAL
## Result two

## Task Could you place KKIRLIFTYPSTVGR in its proper category? Many thanks.
## Result three

## Task Which band does DKKTKPTPPPKPSHL fall in?
## Result one

## Task The entry to classify is PALPSLPPPPLLNVD ; which class holds it?
## Result one

## Task Dear colleague, I would appreciate it if you could identify the bin for KFIPSRPAPKPPSSA and reply at your convenience.
## Result one

## Task Class label required: ALFRLSFFFPLDPAY
## Result three

## Task Would you mind sorting PLRRTVMSLPGNHDI into the appropriate category?
## Result three

## Task In plain terms, what class is NTMKKRPAPPSLPSL ?
## Result two

## Task Band of PSRRDSLSIPRAVDA ?
## Result one

## Task Given QPQRTAPKPPISAPR , name the class its SPOT peptide array binding signal intensity places it in.
## Result one

## Task Each binder maps to one class by SPOT peptide array binding signal intensity. Which class for SAPDIPPRSPNRNAH ?
## Result one

## Task Could you place KKEKKPPKIPKKVYT in its proper category? Many thanks.
## Result one

## Task Into which category would you place VSKLRSPNTPRRLRK ?
## Result two

## Task Could you place GATNNAPTLPKRKNP in its proper category? Many thanks.
## Result one

## Task Please indicate the class for LYEAMPPTLPHRDWK based on its SPOT peptide array binding signal intensity.
## Result two

## Task For the record QRIRKIPGIPLMSVG , report the class its SPOT peptide array binding signal intensity corresponds to.
## Result two

## Task Record NFLRLLIGLPSQNEL — which class?
## Result three

## Task Sort SRQAIPPPVPNRPGG into one of the categories.
## Result one

## Task Please let me know in which category the item KDKKTKPTPPPKPSH belongs.
## Result one

## Task Could you tell me which band KLSRGRYGLPLSSRP belongs to?
## Result two

## Task Where would MTKTPETSPPKRPMG land among the classes by reported SPOT peptide array binding signal intensity?
## Result one
